# experimental.target: DYRK1A (human)
# test.name: radiometric filter-binding kinase assay
# condition: compound 1.0 µM
readout.name: residual activity (%)

These recorded examples may help you get a feel for the data.
O=C(O)c1ccc(-c2c[nH]c3ncc(-c4ccccc4)cc23)cc1C1CCCC1 :: 47
FC(F)(F)c1ccc(-c2ccc(Oc3cncc4sc(-c5nn[nH]n5)cc34)cc2)cc1 :: 27
NC(=O)c1ccc(-c2ccc(Oc3cncc4sc(-c5nn[nH]n5)cc34)cc2)cc1 :: 21
O=C(NOC[C@H](O)CO)c1ccc(F)c(F)c1Nc1ccc(I)cc1Cl :: 94
Cc1ccc(Sc2cnc(Nc3cccc(Br)n3)s2)cc1C(=O)N1CCN(C(=O)CN)CC1 :: 101
NC1(c2ccc(-c3nc4ccn5c(=O)[nH]nc5c4cc3-c3ccccc3)cc2)CCC1 :: 88
O=C(N[C@@H](COc1ccc2[nH]c(=O)[nH]c2c1)c1ccccc1)c1cccn(Cc2ccc(F)c(F)c2)c1=O :: 97
O=C1Nc2nc(-c3c(O)cccc3OCC3CC3)cc(C3CCCNC3)c2CO1 (stereo not drawn) :: 99
COc1cc(O)c2c(c1)[C@H]1OC1C[C@H](O)[C@H](O)C(=O)/C=C\C[C@H](C)OC2=O (stereo partly drawn) :: 101
CN(C)C/C=C/C(=O)Nc1cccc(C(=O)Nc2ccc(Nc3nccc(-c4cccnc4)n3)cc2)c1 :: 85

(I) Cn1c(=O)c2c(ncn2C)n(C)c1=O
(II) NC(=O)c1cc2c(-c3cccc(-c4ccccc4)c3)cnc(N)c2s1
Hey, which is lower on measured residual activity, I or II ? Mark your answer with the label of the selected entry. II
(II: 21%, I: 96%)

* * *

# experimental.target: UniProt Q9NZJ5
# Sequence (Q9NZJ5 whole entry, looked up): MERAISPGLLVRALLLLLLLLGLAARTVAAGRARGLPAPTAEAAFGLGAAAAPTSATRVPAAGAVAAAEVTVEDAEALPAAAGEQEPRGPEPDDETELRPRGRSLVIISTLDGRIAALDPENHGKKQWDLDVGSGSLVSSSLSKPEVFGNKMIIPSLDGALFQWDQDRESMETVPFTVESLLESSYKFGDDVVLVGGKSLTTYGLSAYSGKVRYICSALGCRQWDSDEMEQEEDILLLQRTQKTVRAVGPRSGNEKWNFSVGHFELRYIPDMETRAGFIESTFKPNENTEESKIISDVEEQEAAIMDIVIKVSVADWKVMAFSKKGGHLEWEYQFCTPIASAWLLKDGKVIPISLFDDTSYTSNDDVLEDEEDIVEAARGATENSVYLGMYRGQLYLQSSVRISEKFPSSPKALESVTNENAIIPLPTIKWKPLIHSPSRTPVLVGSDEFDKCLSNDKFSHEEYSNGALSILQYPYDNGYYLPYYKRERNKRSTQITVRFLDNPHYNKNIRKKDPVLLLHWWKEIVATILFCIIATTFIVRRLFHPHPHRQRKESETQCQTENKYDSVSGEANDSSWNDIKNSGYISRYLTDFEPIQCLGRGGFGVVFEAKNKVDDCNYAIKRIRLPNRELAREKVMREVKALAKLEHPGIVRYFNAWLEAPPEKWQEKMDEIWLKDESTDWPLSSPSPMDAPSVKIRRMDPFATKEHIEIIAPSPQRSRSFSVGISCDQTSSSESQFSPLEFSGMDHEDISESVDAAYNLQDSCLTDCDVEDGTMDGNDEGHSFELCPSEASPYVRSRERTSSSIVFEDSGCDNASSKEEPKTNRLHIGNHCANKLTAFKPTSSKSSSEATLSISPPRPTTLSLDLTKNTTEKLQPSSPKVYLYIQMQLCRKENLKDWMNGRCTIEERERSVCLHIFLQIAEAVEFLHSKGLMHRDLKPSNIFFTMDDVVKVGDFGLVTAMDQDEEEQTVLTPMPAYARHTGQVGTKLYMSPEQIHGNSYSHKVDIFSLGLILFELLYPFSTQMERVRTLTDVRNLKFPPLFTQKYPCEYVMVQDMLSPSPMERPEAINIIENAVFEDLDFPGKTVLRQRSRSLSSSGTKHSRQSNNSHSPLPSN
# test.name: radiometric filter-binding kinase assay
# condition: compound 10.0 µM
readout.name: residual activity (%)

CCOC(=O)c1ccc(N2NC(=O)/C(=C/c3ccc([N+](=O)[O-])o3)C2=O)cc1 :: 83
CCNc1nc(Nc2cc(F)c(C(=O)N3CCOCC3)cc2OC)ncc1C(F)(F)F :: 80
O=C(NOC[C@H](O)CO)c1ccc(F)c(F)c1Nc1ccc(I)cc1Cl :: 105
CCn1c(-c2nonc2N)nc2cncc(CNC3CCNCC3)c21 :: 94
Cc1ccc(=O)n(-c2ccccc2)c1 :: 105
COc1cc(C(=O)N2CCOCC2)c(F)cc1Nc1ncc(C(F)(F)F)c(NC2CC2)n1 :: 82

* * *

# experimental.target: NUAK1 (human)
# test.name: radiometric filter-binding kinase assay
# condition: compound 1.0 µM
readout.name: residual activity (%)

Known residual activity results, listed for orientation:
NC1(c2ccc(-c3nc4ccn5c(=O)[nH]nc5c4cc3-c3ccccc3)cc2)CCC1 :: 102
O=C(O)c1ccc(-c2c[nH]c3ncc(-c4ccccc4)cc23)cc1C1CCCC1 :: 15
CCCCCc1ccc(/C=C/[C@H](O)[C@@H](CO)NC)cc1 :: 108

(I) COc1cc(O)c2c(c1)[C@H]1OC1C[C@H](O)[C@H](O)C(=O)/C=C\C[C@H](C)OC2=O (some centres undefined)
(II) NC(=O)c1cc(-c2ccnc(NC3CCCCC3)c2)nc(N2CCNCC2)c1
Which shows the larger residual activity value: I or II ? Your answer should be the label of the entry you select. I

(1) C=CC(=O)N1CCC[C@@H](n2nc(-c3ccc(Oc4ccccc4)cc3)c3c(N)ncnc32)C1
(2) CNc1nc(-c2ccc3c(N)n[nH]c3c2)cc(N2C[C@@H](C(=O)NC3CCCCC3)CC[C@H]2C)n1
(3) CCNc1nc(Nc2cc(F)c(C(=O)N3CCOCC3)cc2OC)ncc1C(F)(F)F
(4) C=C1C(=O)OC2C1CC/C(C)=C/CCC1(C)OC21 (centres undefined)
Put the compounds in ascending order of residual activity. The reply should contain the labels ordered as requested. 3, 2, 1, 4
(3: 13%, 2: 47%, 1: 82%, 4: 130%)

(1) O=C(Nc1nc2cc(C(F)(F)F)cc(NC3CC3)n2n1)c1cccnc1
(2) c1ccc2c(-c3cnn4cc(-c5ccc(N6CCNCC6)cc5)cnc34)ccnc2c1
Two entries are listed, 1 and 2 . Which one carries the higher residual activity? Provide the label of your selected option as the answer. 1
(1: 98%, 2: 17%)

(1) Cc1ccc(=O)n(-c2ccccc2)c1
(2) COc1cc(O)c2c(c1)/C=C/C[C@H](O)[C@H](O)C(=O)/C=C\C[C@H](C)OC2=O
(3) CC(C)(C#N)c1ccc(N2C(=O)OCc3cnc4ccc(-c5cnc6ccccc6c5)cc4c32)cc1
(4) N#Cc1c(C2CCNCC2)cc(-c2c(O)cccc2OCC2CC2)nc1N
(5) Oc1ccc2ccccc2c1SSc1c(O)ccc2ccccc12
Order the records, beginning with the lowest residual activity and ending with the highest. Record the ranking as a list of labels in the requested order. 5, 3, 4, 2, 1
(5: 11%, 3: 32%, 4: 53%, 2: 78%, 1: 115%)

(P) O=C(Nc1ccccc1-c1cn2c(CN3CCNCC3)csc2n1)c1cnc2ccccc2n1
(Q) COc1ccc(N(C(=O)Nc2c(C)cccc2C)c2cc(Nc3ccc(N4CCN(C)CC4)cc3)ncn2)c(OC)c1
(R) O=C(Nc1cccnc1)c1cc(-c2ccnc(F)c2)ccc1OCc1ccccc1
(S) COc1ccc(-n2ncc3cnc(Nc4cc(OC)c(OC)c(OCCCN5CCN(C)CC5)c4)nc32)cc1
Provide the items ranked by increasing residual activity. Please respond with the labels ordered as the question requires. S, R, Q, P
(S: 13%, R: 31%, Q: 64%, P: 106%)

(A) NC(=O)c1ccc(-c2ccc(Oc3cncc4sc(-c5nn[nH]n5)cc34)cc2)cc1
(B) Cc1cc(NC(=O)c2cccc(NC(=O)/C=C/CN(C)C)c2)ccc1Nc1nccc(-c2cccnc2)n1
(C) NC(=O)c1cc2c(-c3cccc(-c4ccccc4)c3)cnc(N)c2s1
Endpoint returns the given compounds ordered by ascending residual activity. Write the labels, ordered according to the request. C, B, A
(C: 24%, B: 49%, A: 92%)

(a) O=C(NOC[C@H](O)CO)c1ccc(F)c(F)c1Nc1ccc(I)cc1Cl
(b) FC(F)(F)c1ccc(-c2ccc(Oc3cncc4sc(-c5nn[nH]n5)cc34)cc2)cc1
(c) COc1cc(C(=O)N2CCOCC2)c(F)cc1Nc1ncc(C(F)(F)F)c(NC2CC2)n1
Put the entries in order of residual activity, starting with the largest number. Record the ranking as a list of labels in the requested order. b, a, c

(I) O=C(NOCC(O)CO)c1ccc(F)c(F)c1Nc1ccc(I)cc1Cl (centres undefined)
(II) NC(=O)c1c(NC(=O)C2CC2)sc2c1CCCC2
Choose between I and II : whose measured residual activity value is numerically larger? Please reply using the label of the selected record. I
(I: 108%, II: 75%)
